Tested on: chloroquine-sensitive D6 strain of P. falciparum
Assay: In vitro antiplasmodial assay, (G-3H) hypoxanthine incorporation, D6 strain
Format: cell-based
Details: Plasmodium falciparum, D6, read-out: IC50(D6)
assay_endpoint: IC50 (nM)
Return type: number; implicit unit nM.

# IC50 measured on chloroquine-sensitive D6 strain of P. falciparum for item CCN(CC)CCCC(C)Nc1ccnc2cc(Cl)ccc12 (stereo not shown) [Chloroquine, reference compound] = 7.7
